The measured values listed here are drawn from patent US20160208018A1.

Measured % Max Competition of individual entries
# testedOn: T1, Human ROR1 (receptor tyrosine kinase-like orphan receptor 1) (human, UniProt Q01973 30-937)
# T1 construct: also called hROR1; K562/ROR1
# assaySummary: competition with R12 scFv on ROR1-expressing cells; predicted plateau relative to R12 scFv = 100%
// note: answer is a bare numeric in %

- binder: "Clone 20 scFv (scFv, 262 differs only at the VH N-terminus; Printed without a linker) scFv: QVTLKESGGGLVKPGGSLRLSCAASGFTFSNAWMSWVRQAPGKGLEWVGRIKSKTDGGTTDYAAPVKGRFTISRDDSKNTLYLQMNSLKTEDTAVYYCARDFGRWSYYFDYWSQGTLVTVSSNIQMTQSPSSLSASVGDRVTITCRASQSINKWLAWYQQKPGKAPKLLIHDASTLESGVPSRFSGSGSGTEFTLTISSLHPDDSATYYCQQLKSRPLSFGEGTKLEIK"
  scaleUnit: "%"
  % Max Competition: 77
- binder: "Clone 48 scFv (scFv) scFv: QVTLKESGGGLVKPGGSLRLSCAASGFTFSNAWMSWVRQAPGKGLEWVGRIKSKTDGGTTDYAAPVKGRFTISRDDSKNTLYLQMNSLKTEDTAVYYCARDFGRWSYYFDYWSQGTLVTVSSGGGGSGGGGSGGGGSQSVLTQPSSVSGTPGQRVTISCSGSSSNIGSNYVYWYQQLPGTAPKLLIYRNNQRPSGVPDRFSGSKSGTSASLAISGLRSEDEADYYCAAWDDSLSGVVFGGGTKLTVL"
  scaleUnit: "%"
  % Max Competition: 55

// next item, % Max Competition requested
Find the measured % Max Competition of Clone 366 scFv (scFv, Printed without a linker) scFv: EVQLVESGGGLVQPGRSLRLSCTASGFTFGDYAMSWVRQAPGKGLEWVSSISGSGRSTDHADYVKGRFTISRDNSKNTVYLQMNRLRAEDTAVYYCAKVSNYEYYFDYWAQGTLVTVSSQSVLTQPPSVPGTPGQRVTITCSGSRFNIGSNTVNWYQQLPGTAPKLLIYSNNQRPSGVPDRFSGSKSGTSASLAISGLQSEDEADYYCAAWDDSLNGYVFGTGTKLTVL and report it. 71
